protocolDescription: acute toxicity in mice, intraperitoneal (Miller and Tainter)
statedConditions: mouse, in vivo, ip, read-out: Acute toxicity (mice) LD 50
readoutKind: LD50
Please state the value followed by its unit.

A selection of reference data follows.
| compound | observed |
| --- | --- |
| CCN1CCCC1CNC(=O)c1cnc(OC)nc1OC (stereo not shown) | 150 mg/kg |
| CCN(CC)CCNC(=O)c1cnc(C)nc1OC | 300 mg/kg |
| COc1nc(C)ncc1C(=O)NCC1CCCN1Cc1ccc(F)cc1 (stereo not shown) | 155 mg/kg |
| CCN(CC)CCNC(=O)c1cnc(N(C)C)nc1OC | 200 mg/kg |
| CCN1CCC[C@H]1CNC(=O)c1cnc(C)nc1OC | 200 mg/kg |

LD50 recorded for this compound, CCN1CCCC1CNC(=O)c1cnc(N)nc1OC(C)C (stereo not shown) , is 170 mg/kg

LD50 recorded for this compound, COc1nc(N)ncc1C(=O)NC1CCN(Cc2ccc(F)cc2)C1 (stereo not shown) , is 100 mg/kg

LD50 recorded for this compound, COc1ncncc1C(=O)NC1CCN(Cc2ccccc2)CC1 , is 125 mg/kg

LD50 recorded for this compound, CCN1CCCC1CNC(=O)c1cnc(N)nc1OC (stereo not shown) , is 300 mg/kg

LD50 recorded for this compound, CCOc1nc(N)ncc1C(=O)NCC1CCCN1CC (stereo not shown) , is 150 mg/kg

###

In this section, each of the compounds is paired with its reported LD50.
protocolDescription: acute toxicity in mice, intraperitoneal (Miller and Tainter)
statedConditions: mouse, in vivo, ip, read-out: Acute toxicity (mice) LD 50
Entry rule: numbers only, all in mg/kg.

| compound | LD50 / mg/kg |
| --- | --- |
| COc1nc(N)ncc1C(=O)NCC1CCCN1Cc1ccc(F)cc1 (stereo not shown) [77.1047] | 130 |
| COc1nc(C)ncc1C(=O)NCC1CCCN1CC1CCCCC1 (stereo not shown) [compound 780836] | 140 |
| COc1ccccc1N1CCN(CCNC(=O)c2cnc(N)nc2OC)CC1 [76.0994] | 150 |

LD50 recorded for this compound, COc1nc(N)ncc1C(=O)NC1CCN(Cc2ccccc2)CC1 [77.0208] , is 500

LD50 recorded for this compound, CCCOc1nc(C)ncc1C(=O)NCC1CCCN1CC (stereo not shown) [compound 780432] , is 170

LD50 recorded for this compound, COc1nc(N)ncc1C(=O)NC1CCN(C2CCCCC2)C1 (stereo not shown) [77.1006] , is 175

LD50 recorded for this compound, CCOc1nc(C)ncc1C(=O)NC[C@@H]1CCCN1CC [compound 780905] , is 175

LD50 recorded for this compound, COc1nc(N)ncc1C(=O)N1CC1 [77.1017] , is 300

LD50 recorded for this compound, COc1ncc(C(=O)NC2CCN(Cc3ccccc3)CC2)c(OC)n1 [77.1244] , is 180

LD50 recorded for this compound, CCN1CCCC1CNC(=O)c1cnc(C(C)C)nc1OC (stereo not shown) [compound 780907] , is 120

###

protocolDescription: acute toxicity in mice, intraperitoneal (Miller and Tainter)
statedConditions: mouse, in vivo, ip, read-out: Acute toxicity (mice) LD 50
In this section, each of the molecules is paired with its reported LD50.
Entry rule: numbers only, all in mg/kg.

| molecule | unitsLabel | LD50 |
| --- | --- | --- |
| CCCN1CCCC1CNC(=O)c1cnc(C)nc1OC (centres unmarked) | mg/kg | 140 |
| CCCOc1nc(N)ncc1C(=O)NCC1CCCN1CC (centres unmarked) | mg/kg | 150 |

LD50 recorded for this molecule, CCN1CCC[C@H]1CNC(=O)c1cnc(N(C)C)nc1OC , is 100

LD50 recorded for this molecule, CNc1ncc(C(=O)NC2CCN(Cc3ccccc3)CC2)c(OC)n1 , is 70

LD50 recorded for this molecule, COc1nc(C)ncc1C(=O)NCC1CCCN1C (centres unmarked) , is 275

Entry source: patent US4250178A
